# target-entity: human CD33 variant Y127R (human, UniProt P20138 18-364)
# Sequence (P20138 18-364 Y127R limits assumed): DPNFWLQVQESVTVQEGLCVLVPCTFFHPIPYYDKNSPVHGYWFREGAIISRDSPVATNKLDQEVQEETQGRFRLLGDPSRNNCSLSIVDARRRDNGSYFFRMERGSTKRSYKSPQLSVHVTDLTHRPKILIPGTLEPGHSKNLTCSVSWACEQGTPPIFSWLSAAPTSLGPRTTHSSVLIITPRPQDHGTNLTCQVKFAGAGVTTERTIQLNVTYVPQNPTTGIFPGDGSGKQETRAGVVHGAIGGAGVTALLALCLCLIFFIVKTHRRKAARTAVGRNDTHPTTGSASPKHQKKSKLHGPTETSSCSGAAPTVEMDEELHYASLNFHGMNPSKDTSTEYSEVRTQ
# protocol-details: flow cytometry, IgG on cells expressing the mutant

binder: Refmab #2 (antibody, human IgG1, V domains shown, Tested in IgG format; human IgG1 Fc silent (PG-LALA)) VH: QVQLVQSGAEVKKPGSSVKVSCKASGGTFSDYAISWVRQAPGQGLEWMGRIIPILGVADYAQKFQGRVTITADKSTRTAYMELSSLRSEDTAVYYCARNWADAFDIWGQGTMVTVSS VL: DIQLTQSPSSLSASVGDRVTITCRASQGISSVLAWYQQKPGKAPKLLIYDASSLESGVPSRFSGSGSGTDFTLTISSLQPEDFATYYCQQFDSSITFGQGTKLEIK
Mean % WT Binding: 110 % of WT

binder: Refmab #1 (antibody, human IgG1, V domains shown, Tested in IgG format; human IgG1 (Absolute Antibody hP67.6, Cat. No. Ab00283-10.0); also called hP67.6) VH: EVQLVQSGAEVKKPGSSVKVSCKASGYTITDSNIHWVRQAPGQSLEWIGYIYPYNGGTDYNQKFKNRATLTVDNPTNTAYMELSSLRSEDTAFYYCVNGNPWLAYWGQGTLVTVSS VL: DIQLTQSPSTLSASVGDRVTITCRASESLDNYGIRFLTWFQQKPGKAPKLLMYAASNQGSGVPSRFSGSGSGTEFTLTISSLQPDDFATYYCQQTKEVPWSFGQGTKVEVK
Mean % WT Binding: 84 % of WT

binder: Refmab #4 (antibody, human IgG1, V domains shown, Tested in IgG format; human IgG1 Fc silent (PG-LALA)) VH: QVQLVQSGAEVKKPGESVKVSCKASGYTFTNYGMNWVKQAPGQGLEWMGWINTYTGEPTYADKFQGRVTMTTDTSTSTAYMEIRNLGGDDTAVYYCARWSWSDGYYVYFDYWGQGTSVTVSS VL: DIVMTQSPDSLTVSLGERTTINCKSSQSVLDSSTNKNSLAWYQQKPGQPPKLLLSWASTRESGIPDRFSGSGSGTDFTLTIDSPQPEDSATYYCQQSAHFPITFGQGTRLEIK
Mean % WT Binding: 116 % of WT

binder: Refmab #3 (antibody, human IgG1, V domains shown, Tested in IgG format; human IgG1 Fc silent (PG-LALA)) VH: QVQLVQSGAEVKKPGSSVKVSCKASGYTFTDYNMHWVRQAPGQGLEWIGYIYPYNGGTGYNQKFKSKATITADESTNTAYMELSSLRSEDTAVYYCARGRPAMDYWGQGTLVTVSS VL: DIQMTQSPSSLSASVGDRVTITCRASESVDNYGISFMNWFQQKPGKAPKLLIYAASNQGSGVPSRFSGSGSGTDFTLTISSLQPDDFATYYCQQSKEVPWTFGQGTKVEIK
Mean % WT Binding: 65.9 % of WT
